tested.target: T1, 14-3-3ζ nhpSer58 with a FLAG tag at its N-terminus (Homo sapiens (Human), UniProt P63104 1-245)
T1 sequence: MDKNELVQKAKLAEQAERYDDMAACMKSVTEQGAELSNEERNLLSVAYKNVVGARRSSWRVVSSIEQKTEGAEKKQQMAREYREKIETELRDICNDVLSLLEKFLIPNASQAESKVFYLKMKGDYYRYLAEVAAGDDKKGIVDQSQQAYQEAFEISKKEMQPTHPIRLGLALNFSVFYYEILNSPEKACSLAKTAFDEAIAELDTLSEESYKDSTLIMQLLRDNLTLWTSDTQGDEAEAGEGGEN

binder	unit.of.measurement	FC
Transformer-2 protein homolog alpha [OS = Homo sapiens] (other, UniProt Q13595 2-282, looked up) SDVEENNFEGRESRSQSKSPTGTPARVKSESRSGSRSPSRVSKHSESHSRSRSKSRSRSRRHSHRRYTRSRSHSHSHRRRSRSRSYTPEYRRRRSRSHSPMSNRRRHTGSRANPDPNTCLGVFGLSLYTTERDLREVFSRYGPLSGVNVVYDQRTGRSRGFAFVYFERIDDSKEAMERANGMELDGRRIRVDYSITKRAHTPTPGIYMGRPTHSGGGGGGGGGGGGGGGGRRRDSYYDRGYDRGYDRYEDYDYRYRRRSPSPYYSRYRSRSRSRSYSPRRY	fold	0.0906
14-3-3 protein beta/alpha [OS = Homo sapiens] (other, UniProt P31946 1-246, looked up) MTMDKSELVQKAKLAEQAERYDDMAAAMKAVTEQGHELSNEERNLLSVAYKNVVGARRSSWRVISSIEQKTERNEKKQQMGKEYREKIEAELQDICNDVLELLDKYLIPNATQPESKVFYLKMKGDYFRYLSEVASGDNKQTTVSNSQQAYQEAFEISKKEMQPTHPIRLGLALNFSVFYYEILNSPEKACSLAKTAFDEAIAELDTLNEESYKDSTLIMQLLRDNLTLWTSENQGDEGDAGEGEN	fold	0.0486
14-3-3 protein eta [OS = Homo sapiens] (other, UniProt Q04917 2-246, looked up) GDREQLLQRARLAEQAERYDDMASAMKAVTELNEPLSNEDRNLLSVAYKNVVGARRSSWRVISSIEQKTMADGNEKKLEKVKAYREKIEKELETVCNDVLSLLDKFLIKNCNDFQYESKVFYLKMKGDYYRYLAEVASGEKKNSVVEASEAAYKEAFEISKEQMQPTHPIRLGLALNFSVFYYEIQNAPEQACLLAKQAFDDAIAELDTLNEDSYKDSTLIMQLLRDNLTLWTSDQQDEEAGEGN	fold	0.0561
